Listing of entries alongside the reported Polydispersity index (PDI).
- assay.explanation: LNP particle size and polydispersity by dynamic light scattering
- Format: physicochemical
- setup.conditions: LNP containing ionizable lipid and antisense oligonucleotide

compound: CCCCCCCCC(CCCCCC)C(=O)O[C@@H](CCCCCCCC)[C@@H](CCCCCCCC(=O)OCCCN(CC)CC)OC(=O)C(CCCCCC)CCCCCCCC (mixture of isomers)
Polydispersity index (PDI): 0.070

compound: CCCCC/C=C\C/C=C\CCCCCCCC(=O)O[C@@H](CCCCCCCC)[C@@H](CCCCCCCC(=O)OCCN(CC)CC)OC(=O)CCCCCCC/C=C\C/C=C\CCCCC (racemic)
Polydispersity index (PDI): 0.065

compound: CCCCC/C=C\C/C=C\CCCCCCCC(=O)O[C@@H](CCCCCCCC)[C@@H](CCCCCCCC(=O)OCCCN(C)C)OC(=O)CCCCCCC/C=C\C/C=C\CCCCC (racemic)
Polydispersity index (PDI): 0.036

compound: CCCCC/C=C\C/C=C\CCCCCCCC(=O)O[C@@H](CCCCCCCC)[C@@H](CCCCCCCC(=O)OCCN(C)C)OC(=O)CCCCCCC/C=C\C/C=C\CCCCC (racemic)
Polydispersity index (PDI): 0.103

compound: CCCCC/C=C\C/C=C\CCCCCCCC(=O)O[C@@H](CCCCCCCC)[C@@H](CCCCCCCC(=O)OCCCN(CC)CC)OC(=O)CCCCCCC/C=C\C/C=C\CCCCC (racemic)
Polydispersity index (PDI): 0.096

###

- assay.explanation: LNP particle size and polydispersity by dynamic light scattering
- Type: physicochemical
- setup.conditions: LNP containing ionizable lipid and siRNA
Listing of entries alongside the reported Polydispersity index (PDI).

compound: CCCCC/C=C\C/C=C\CCCCCCCC(=O)O[C@@H](CCCCCCCC)[C@@H](CCCCCCCC(=O)OCCCN(C)C)OC(=O)CCCCCCC/C=C\C/C=C\CCCCC (racemic)
Polydispersity index (PDI): 0.043

compound: CCCCC/C=C\C/C=C\CCCCCCCC(=O)O[C@@H](CCCCCCCC)[C@@H](CCCCCCCC(=O)OCCN(CC)CC)OC(=O)CCCCCCC/C=C\C/C=C\CCCCC (racemic)
Polydispersity index (PDI): 0.024

compound: CCCCC/C=C\C/C=C\CCCCCCCC(=O)O[C@@H](CCCCCCCC)[C@@H](CCCCCCCC(=O)OCCCN(CC)CC)OC(=O)CCCCCCC/C=C\C/C=C\CCCCC (racemic)
Polydispersity index (PDI): 0.063

compound: CCCCC/C=C\C/C=C\CCCCCCCC(=O)O[C@@H](CCCCCCCC)[C@@H](CCCCCCCC(=O)OCCN(C)C)OC(=O)CCCCCCC/C=C\C/C=C\CCCCC (racemic)
Polydispersity index (PDI): 0.059

compound: CCCCCCCCC(CCCCCC)C(=O)O[C@@H](CCCCCCCC)[C@@H](CCCCCCCC(=O)OCCCN(CC)CC)OC(=O)C(CCCCCC)CCCCCCCC (mixture of isomers)
Polydispersity index (PDI): 0.021
